test system: IL-17A-induced G-CSF production in human normal keratinocyte (NHK); assay: NHK assay: IL-17A-induced G-CSF production in normal human keratinocytes; format: cell-based; conditions: Homo sapiens, Keratinocyte, 24 h, IL-17A 5 ng/mL, class of the average IC50 where tested more than once
MEASUREMENT_NAME: IC50

## Task Looking for the measured IC50 of CC(C)(CC[C@H](NC(=O)c1nonc1C1CC1)c1cn2ncc(CC3C[C@@](C)(C(F)(F)F)NC3=O)cc2n1)C(F)(F)F (single isomer, unassigned) [Example 57] , can you help?
## Result < 400 nM

## Task Looking for the measured IC50 of O=C(N[C@H](c1cn2ncc([C@H](O)[C@@H]3C[C@@H](C(F)(F)F)NC3=O)cc2n1)C1CCC(F)(F)CC1)c1nonc1C1CC1 (relative stereo) [Example 75] , can you help?
## Result < 400 nM

## Task Looking for the measured IC50 of CC[C@@H](c1cnn2cc([C@@H](NC(=O)c3nonc3C3CC3)C3CCC(F)(F)CC3)nc2c1)[C@@H]1C[C@@H](C(F)(F)F)NC1=O (relative stereo) [Example 20] , can you help?
## Result 400 to 4000 nM

## Task Looking for the measured IC50 of O=C(N[C@H](c1cn2ncc([C@H](O)[C@H]3C[C@@H](C(F)(F)F)NC3=O)cc2n1)C1CCC(F)(F)CC1)c1nonc1C1CC1 (relative stereo) [Example 77] , can you help?
## Result 400 to 4000 nM

## Task Looking for the measured IC50 of CC1(C)C[C@H](Cc2cnn3cc([C@@H](NC(=O)c4nonc4C4CC4)C4CCC(F)(F)CC4)nc3c2)C(=O)N1 (single isomer, unassigned) [Example 14] , can you help?
## Result > 4000 nM

----------
target: IL-17A(FLAG-tagged): IL-17RA(His-tagged) (Homo sapiens, UniProt Q16552, K93Q); assay: IL-17A(FLAG-tagged): IL-17RA(His-tagged) binding disruption Eu-HTRF assay; conditions: class of the average IC50 where tested more than once
Sequence (Q16552 with tags, fused parts or gaps K93Q): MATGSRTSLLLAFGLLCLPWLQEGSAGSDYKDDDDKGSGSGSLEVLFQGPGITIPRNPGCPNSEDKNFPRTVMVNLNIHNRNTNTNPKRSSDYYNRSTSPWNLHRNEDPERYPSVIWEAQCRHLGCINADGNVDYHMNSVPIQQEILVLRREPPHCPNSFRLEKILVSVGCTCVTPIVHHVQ
Task for the reader: assign each of the following compounds its reported IC50.

## Task Looking for the measured IC50 of O=C(N[C@H](c1cn2ncc([C@@H](O)[C@@H]3C[C@@H](C(F)(F)F)NC3=O)cc2n1)C1CCC(F)(F)CC1)c1nonc1C1CC1 (relative stereo) , can you help?
## Result 0.4 to 4 µM

## Task Looking for the measured IC50 of O=C(N[C@H](c1cn2ncc([C@H](O)[C@@H]3C[C@@H](C(F)(F)F)NC3=O)cc2n1)C1CCC(F)(F)CC1)c1nonc1C1CC1 (relative stereo) , can you help?
## Result < 0.4 µM

## Task Looking for the measured IC50 of O=C(N[C@H](c1cn2ncc(C[C@@]34CCC[C@H](C3)NC4=O)cc2n1)C1CCC(F)(F)CC1)c1nonc1C1CC1 (single isomer, unassigned) , can you help?
## Result < 0.4 µM

## Task Looking for the measured IC50 of O=C(N[C@H](c1cn2ncc(CC3CCCCNC3=O)cc2n1)C1CCC(F)(F)CC1)c1nonc1C1CC1 (single isomer, unassigned) [Example 26] , can you help?
## Result 0.4 to 4 µM

## Task Looking for the measured IC50 of O=C(N[C@H](c1cn2ncc([C@@H](O)[C@@H]3C[C@H](C(F)(F)F)NC3=O)cc2n1)C1CCC(F)(F)CC1)c1nonc1C1CC1 (single isomer, unassigned) , can you help?
## Result > 4 µM
